All values here come from ChEMBL document CHEMBL4680221.

The entries below come with measured inhibition values attached.
target: Lysine-specific demethylase 5B (Homo sapiens, UniProt Q9UGL1); assay: Inhibition of recombinant human N-terminal FLAG-tagged KDM5B expressed in Sf9 insect cells at 10 uM using biotin-H3K4me as substrate by ALPHA relative to control
Sequence (Q9UGL1 whole entry): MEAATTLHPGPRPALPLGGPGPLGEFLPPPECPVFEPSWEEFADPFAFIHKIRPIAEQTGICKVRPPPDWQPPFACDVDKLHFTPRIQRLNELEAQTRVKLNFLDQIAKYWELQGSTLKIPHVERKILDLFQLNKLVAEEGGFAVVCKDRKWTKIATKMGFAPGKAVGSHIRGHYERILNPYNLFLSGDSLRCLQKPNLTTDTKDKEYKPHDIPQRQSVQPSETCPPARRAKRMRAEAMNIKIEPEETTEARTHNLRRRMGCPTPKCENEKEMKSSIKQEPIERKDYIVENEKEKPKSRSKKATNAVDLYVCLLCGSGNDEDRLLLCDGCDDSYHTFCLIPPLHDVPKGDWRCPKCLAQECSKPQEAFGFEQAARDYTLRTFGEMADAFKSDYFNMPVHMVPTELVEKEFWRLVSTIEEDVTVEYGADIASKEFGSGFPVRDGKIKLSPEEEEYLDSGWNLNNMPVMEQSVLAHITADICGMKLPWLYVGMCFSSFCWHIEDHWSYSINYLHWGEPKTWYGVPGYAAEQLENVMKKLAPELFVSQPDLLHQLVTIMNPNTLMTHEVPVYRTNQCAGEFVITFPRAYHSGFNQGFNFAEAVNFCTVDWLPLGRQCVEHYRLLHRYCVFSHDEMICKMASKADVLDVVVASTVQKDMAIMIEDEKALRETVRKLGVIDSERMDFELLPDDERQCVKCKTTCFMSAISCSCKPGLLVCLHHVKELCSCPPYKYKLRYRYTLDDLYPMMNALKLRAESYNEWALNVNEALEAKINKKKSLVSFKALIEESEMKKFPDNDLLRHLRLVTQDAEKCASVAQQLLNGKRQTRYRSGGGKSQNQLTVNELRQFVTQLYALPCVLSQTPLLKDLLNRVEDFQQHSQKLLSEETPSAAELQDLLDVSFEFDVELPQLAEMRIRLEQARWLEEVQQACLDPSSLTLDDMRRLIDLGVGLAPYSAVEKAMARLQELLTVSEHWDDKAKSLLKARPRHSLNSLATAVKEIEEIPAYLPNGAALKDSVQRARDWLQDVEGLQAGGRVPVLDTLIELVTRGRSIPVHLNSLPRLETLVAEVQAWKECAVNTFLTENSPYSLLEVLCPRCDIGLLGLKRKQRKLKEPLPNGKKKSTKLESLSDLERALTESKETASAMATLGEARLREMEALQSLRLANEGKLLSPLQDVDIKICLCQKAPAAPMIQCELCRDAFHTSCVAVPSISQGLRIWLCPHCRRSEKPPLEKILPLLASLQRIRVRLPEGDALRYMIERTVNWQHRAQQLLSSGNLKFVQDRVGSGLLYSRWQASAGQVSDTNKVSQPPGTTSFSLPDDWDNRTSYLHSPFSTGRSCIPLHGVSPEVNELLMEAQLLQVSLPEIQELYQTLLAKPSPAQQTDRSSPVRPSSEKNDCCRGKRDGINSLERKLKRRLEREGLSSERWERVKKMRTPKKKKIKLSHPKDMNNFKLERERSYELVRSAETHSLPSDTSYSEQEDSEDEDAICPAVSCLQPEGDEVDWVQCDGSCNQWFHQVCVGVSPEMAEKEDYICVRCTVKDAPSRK
Write the number in % without appending the unit.

Query block: Under Lysine-specific demethylase 5B (Homo sapiens, UniProt Q9UGL1), report inhibition for Cc1ccccc1-c1nn(-c2ccccc2)cc1C(=O)NCCN1CCOCC1
Result block: 9.25

* * *

target: UniProt:Q9UGL1; experiment: Inhibition of recombinant human N-terminal FLAG-tagged KDM5B expressed in Sf9 insect cells using biotin-H3K4me as substrate by ALPHA
Measured quantity: IC50

Some entries whose results are on file:
Cc1cncc(C(=O)NCCN2CCOCC2)c1 ... > 10000 nM
CC(C)N(CCNC(=O)c1cn(-c2ccccc2)nc1-c1ccccc1)C(C)C ... 2240 nM
Cc1cccc(-n2cc(C(=O)NCCN3CCOCC3)c(-c3ccccc3)n2)c1 ... > 10000 nM
COc1ccc(-n2cc(C(=O)NCC(C)(C)N3CCOCC3)c(-c3ccccc3)n2)cc1 ... 24.4 nM
Cc1ccc(-n2cc(C(=O)NCCN3CCOCC3)c(-c3ccccc3)n2)cc1 ... 851 nM

Query block: # return recorded IC50 for entry Cc1ccc(-n2nc(-c3ccccc3)nc2C(=O)NCC(C)(C)N2CCOCC2)cc1
Result block: > 10000 nM

Query block: # return recorded IC50 for entry Cc1ccc(NC(=O)c2cn(-c3ccc(C)cc3)nc2-c2ccccc2)cc1
Result block: 323 nM

* * *

Target: Lysine-specific demethylase 4C (Homo sapiens, UniProt Q9H3R0)
Sequence (Q9H3R0 whole entry): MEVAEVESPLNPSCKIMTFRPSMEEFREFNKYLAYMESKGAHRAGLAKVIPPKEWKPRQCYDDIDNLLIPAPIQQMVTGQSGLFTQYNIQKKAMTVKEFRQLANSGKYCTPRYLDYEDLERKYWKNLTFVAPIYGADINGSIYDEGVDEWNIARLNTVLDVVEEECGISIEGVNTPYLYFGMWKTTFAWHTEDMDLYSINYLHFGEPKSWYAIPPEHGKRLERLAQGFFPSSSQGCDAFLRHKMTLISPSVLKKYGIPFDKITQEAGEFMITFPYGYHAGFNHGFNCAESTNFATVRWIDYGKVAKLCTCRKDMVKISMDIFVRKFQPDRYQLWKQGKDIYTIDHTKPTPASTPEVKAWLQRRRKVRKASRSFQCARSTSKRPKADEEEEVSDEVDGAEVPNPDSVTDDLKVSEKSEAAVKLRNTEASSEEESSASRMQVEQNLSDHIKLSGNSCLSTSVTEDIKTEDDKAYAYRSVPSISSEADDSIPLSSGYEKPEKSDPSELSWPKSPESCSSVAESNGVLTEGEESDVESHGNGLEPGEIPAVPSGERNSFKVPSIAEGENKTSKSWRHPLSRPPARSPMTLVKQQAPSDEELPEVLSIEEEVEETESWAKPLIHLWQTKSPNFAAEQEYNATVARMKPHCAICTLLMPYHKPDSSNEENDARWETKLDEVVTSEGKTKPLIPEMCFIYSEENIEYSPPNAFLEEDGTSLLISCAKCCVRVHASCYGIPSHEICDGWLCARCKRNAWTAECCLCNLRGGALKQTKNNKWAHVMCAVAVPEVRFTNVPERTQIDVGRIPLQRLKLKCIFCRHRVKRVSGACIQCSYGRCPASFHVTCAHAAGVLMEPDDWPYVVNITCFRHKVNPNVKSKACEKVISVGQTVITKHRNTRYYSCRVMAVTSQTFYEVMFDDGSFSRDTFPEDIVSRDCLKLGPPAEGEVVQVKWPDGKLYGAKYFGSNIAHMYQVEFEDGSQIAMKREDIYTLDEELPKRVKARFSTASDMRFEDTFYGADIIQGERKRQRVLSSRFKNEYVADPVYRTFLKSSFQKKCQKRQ
Measured quantity: pIC50
Reminder that pIC50 is minus the log10 of a molar concentration.

Query block: # return recorded pIC50 for entry COc1ccc(-n2cc(C(=O)NCC(C)(C)N3CCOCC3)c(-c3ccccc3)n2)cc1
Result block: 5.95
